# Test system: Rattus norvegicus
# EXPERIMENT: Antihyperlipidemic activity in rat assessed as reduction of tyloxapol-induced plasma low density lipoprotein cholesterol level at 150 umol/kg, ip after 24 hrs relative to control
# Format: functional
Listing: inhibition in vivo at 150 µmol/kg of selected compounds
# output: bare number, implied unit %

Field: example entries. Status: answers known.
# COMPOUND, UNIT, inhibition in vivo at 150 µmol/kg
rows = [
    ("Cc1c(Cl)cccc1Nc1ccccc1C(=O)N1CCSCC1", "%", 70.5),
    ("CC(C)Cc1ccc(C(C)C(=O)N2CCSCC2)cc1 (stereo not drawn)", "%", 57.6),
    ("COc1ccc2c(c1)c(CC(=O)N1CCSCC1)c(C)n2C(=O)c1ccc(Cl)cc1", "%", 83),
    ("CC(C(=O)N1CCSCC1)c1cccc(C(=O)c2ccccc2)c1 (stereo not drawn)", "%", 64.9),
    ("COc1ccc2cc(C(C)C(=O)N3CCSCC3)ccc2c1 (stereo not drawn)", "%", 81.4),
]

Ask | Name the reported inhibition in vivo at 150 µmol/kg value associated with the compound "O=C(c1ccccc1Nc1cccc(C(F)(F)F)c1)N1CCSCC1"
Reply | 64.2

Ask | Name the reported inhibition in vivo at 150 µmol/kg value associated with the compound "Cc1cccc(Nc2ccccc2C(=O)N2CCSCC2)c1C"
Reply | 71.3

Ask | Name the reported inhibition in vivo at 150 µmol/kg value associated with the compound "O=C(Cc1ccccc1Nc1c(Cl)cccc1Cl)N1CCSCC1"
Reply | 70.8

----------
# Test system: Rattus norvegicus
# EXPERIMENT: Anti-inflammatory activity in rat assessed as reduction of carrageenan-induced paw edema at 150 umol/kg, ip after 3.5 hrs relative to control
# Type: functional
Use 40% as the dividing line for inhibition in vivo at 150 µmol/kg, with the line itself on the yes (1) side and lower values as no (0).

// known answers, use as guide
# COMPOUND, GROUP
rows = [
    ("COc1ccc2cc(C(C)C(=O)N3CCSCC3)ccc2c1 (stereo unspecified)", "yes (1)"),
    ("O=C(O)Cc1ccccc1Nc1c(Cl)cccc1Cl", "no (0)"),
    ("Cc1c(Cl)cccc1Nc1ccccc1C(=O)O", "no (0)"),
    ("Cc1c(Cl)cccc1Nc1ccccc1C(=O)N1CCSCC1", "yes (1)"),
]

Then this compound:
Ask | Is it the case that "Cc1cccc(Nc2ccccc2C(=O)O)c1C" has inhibition in vivo at 150 µmol/kg reaching or exceeding 40%?
Reply | yes (1)

----------
Listing: inhibition in vivo at 150 µmol/kg of selected compounds
# Tested on: Rattus norvegicus
# EXPERIMENT: Antihyperlipidemic activity in rat assessed as reduction of tyloxapol-induced plasma total cholesterol level at 150 umol/kg, ip after 24 hrs relative to control
# Assay type: functional

Field: example entries. Status: answers known.
# COMPOUND, SYSTEM UNDER TEST, inhibition in vivo at 150 µmol/kg
data = [
    ("Cc1c(Cl)cccc1Nc1ccccc1C(=O)N1CCSCC1", "Rattus norvegicus", "65.9%"),
    ("CC(C)Cc1ccc(C(C)C(=O)N2CCSCC2)cc1 (stereo not given)", "Rattus norvegicus", "60.3%"),
    ("COc1ccc2c(c1)c(CC(=O)N1CCSCC1)c(C)n2C(=O)c1ccc(Cl)cc1", "Rattus norvegicus", "73%"),
    ("O=C(Cc1ccccc1Nc1c(Cl)cccc1Cl)N1CCSCC1", "Rattus norvegicus", "44.1%"),
]

// moving on: another record for inhibition in vivo at 150 µmol/kg
Ask | Provide value of inhibition in vivo at 150 µmol/kg for this record tested with Rattus norvegicus: "Cc1cccc(Nc2ccccc2C(=O)N2CCSCC2)c1C"
Reply | 80.5%
